- test_name: Partition / distribution coefficient octanol-water (Sirius T3)
- Type: physicochemical
- experimental_context: octanol/water, pH 6
endpoint_label: logD
Form rule: numeric answer, no unit written next to it.

Ask | Consider the compound Cc1ccc2c(Nc3cccc(Cl)c3F)nccc2c1NC(=O)c1csc2c(N)ncnc12 [Example 3] and give its measured logD.
Reply | 5.22
